# System: Galium (catchweed bedstraw, Galium aparine)
# assay.explanation: Test A postemergence
# Type: in vivo
# condition: Postemergence, 500 g ai/ha; 0 to 100 scale where 0 is no effect and 100 is complete control
Give Plant response rating, Galium for every item shown.
Answers are plain numbers.

The cases that follow already have their Plant response rating, Galium on record.
compound: O=C1NCC(c2ccc(F)cc2F)C1C(=O)Nc1ccccc1F (centres unmarked) [Compound 620]
target.under.test: Galium (catchweed bedstraw, Galium aparine)
reported.result: 20

compound: CN1CC(c2cccc(C(F)(F)F)c2)C(C(=O)Nc2ccccc2[N+](=O)[O-])C1=O (centres unmarked) [Compound 572]
target.under.test: Galium (catchweed bedstraw, Galium aparine)
reported.result: 60

compound: O=C1NCC(c2cc(F)c(F)cc2F)C1C(=O)Nc1cccc(F)c1F (racemic) [Compound 550]
target.under.test: Galium (catchweed bedstraw, Galium aparine)
reported.result: 60

compound: O=C1NCC(c2cc(F)ccc2F)C1C(=O)Nc1cccc(F)c1F (racemic) [Compound 546]
target.under.test: Galium (catchweed bedstraw, Galium aparine)
reported.result: 0

compound: CN1CC(c2ccc(F)c(C(F)(F)F)c2)C(C(=O)Nc2ccccc2F)C1=O (centres unmarked) [Compound 611]
target.under.test: Galium (catchweed bedstraw, Galium aparine)
reported.result: 60

compound: C=C(Cl)CN1CC(c2cccc(C(F)(F)F)c2)C(C(=O)Nc2ccccc2F)C1=O (centres unmarked) [Compound 482]
target.under.test: Galium (catchweed bedstraw, Galium aparine)
reported.result: 0

Can you give me Plant response rating, Galium for all of these, one by one?
1. C=C(C)CN1CC(c2cccc(C(F)(F)F)c2)C(C(=O)Nc2cccc(F)c2F)C1=O (centres unmarked) [Compound 479]
2. O=C1NCC(c2ccc(C(F)(F)F)c(F)c2)C1C(=O)Nc1ccccc1F (racemic) [Compound 521]

1. 0
2. 60

Hello, the source for this data is patent US12077503B2, in case you need it.
